B1: PTPN9 (parent)
chain: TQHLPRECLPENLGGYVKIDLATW

- Variants of: B1
- experiment_summary: protein stability index of a GFP-peptide fusion (GPS, HEK-293T) (PSI 1-6); higher = more stable;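 further: lentivirally expressed fusions sorted by FACS into six bins by GFP to DsRed ratio, PSI derived from sequencing read proportions per bin multiplied by bin number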
- condition_summary: c terminus: a fixed tail appended

record_sequence | protein stability index
TQHLPRECLPENGGGYVKIDLATW [L13G] | 1.98
TDHLPRECLPENLGGYVKIDLATW [Q2D] | 2.02
TQHLPRECLPENLGGYVSIDLATW [K18S] | 1.97
TQHTPRECLPENLGGYVKIDLATW [L4T] | 1.98
TQHLPNECLPENLGGYVKIDLATW [R6N] | 1.98
TQHLPRECLMENLGGYVKIDLATW [P10M] | 2.04
